- TEST_TARGET: T1, 4H2223-bA
- T1 chain: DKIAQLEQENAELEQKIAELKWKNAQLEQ
- ASSAY_TEXT: two-hybrid library CCNG1;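 further: natural log of median RNA to DNA barcode read ratio; higher means stronger binding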
hey, just use TRUE if measured interaction score is less than -0.7, otherwise FALSE

| BINDER | GROUP_LABEL |
| --- | --- |
| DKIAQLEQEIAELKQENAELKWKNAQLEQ [4H2143-bA] | TRUE |
| DKIAQLEQEIAELKQENAELEWKIAQLKQ [4H2134-bA] | FALSE |
| DEIAQLEQEIAELKQKNAELKWEIAQLEQ [4H121-bA] | FALSE |
| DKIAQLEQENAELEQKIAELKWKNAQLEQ [4H2223-bA] | FALSE |
